# measurement target: recombinant human pancreatic GLK (Homo sapiens, UniProt P35557)
# protocol details: biochemical
metric: pEC50
FYI, pEC50 means -log10 of a concentration in mol per litre.

| compound | pEC50 |
| --- | --- |
| Cc1cnc(NC(=O)[C@@H](Oc2ncnc3c2cnn3-c2ncccc2Cl)C(C)C)cn1 | 5.04 |

Note: attention shifts to another entry.
Request: Form field: reported pEC50 of Cc1ccc(NC(=O)[C@H](COC(C)C)Oc2ncnc3c2cnn3-c2ccccc2C(F)(F)F)nc1
Result: 6.55

###

# measurement target: recombinant human pancreatic GLK (Homo sapiens, UniProt P35557)
# protocol details: biochemical
Here the recorded pEC50 is given for each entry.
The quantity pEC50 is defined as the negative base-10 logarithm of the molar concentration.

Past entries and their recorded results:
| compound | pEC50 |
| --- | --- |
| N#Cc1ccc(NC(=O)[C@H](CN2CC(O)C2)Oc2ncnc3c2cnn3-c2ccccc2Cl)nc1 | 6.51 |
| Cc1ccnc(NC(=O)C(COC(C)C)Oc2ncnc3c2cnn3-c2ccccc2Cl)c1 (stereo not shown) | 5.64 |
| COCC[C@H](Oc1ncnc2c1cnn2-c1ncccc1Cl)C(=O)Nc1ccc(C)cn1 | 6.89 |

Request: Quick one: pEC50 for Cc1cnc(NC(=O)[C@H](CO[C@H](C)CO)Oc2ncnc3c2cnn3-c2ccccc2Cl)cn1 ?
Result: 6.23

Request: Give its pEC50 value. Item: CC(C)OC[C@H](Oc1ncnc2c1cnn2-c1ncccc1Cl)C(=O)Nc1ccc(F)cn1 [Example 127l]
Result: 6.30

Request: Requested read-out: pEC50. Entry: Cc1ccc(NC(=O)[C@H](COC(C)C)Oc2ncnc3c2cnn3-c2cnccc2C)nc1
Result: 6.03

Request: GET /values?readout=pEC50&item= CC(C)OC[C@H](Oc1ncnc2c1cnn2-c1ncccc1Cl)C(=O)Nc1ccc(C#N)cn1 [Example 127j]
Result: 6.24

Request: Given the compound Cc1nsc(NC(=O)[C@H](COC(C)C)Oc2ncnc3c2cnn3-c2ncccc2Cl)n1 , what is its reported pEC50?
Result: 5.48

Request: What value of pEC50 has been reported for the following compound? CC(C)OC[C@H](Oc1ncnc2c1cnn2-c1ncccc1Cl)C(=O)Nc1ccc(C(=O)N(C)C)cn1
Result: 5.37

Request: Item under review: Cc1ccc(NC(=O)[C@H](COC(C)C)Oc2ncnc3c2cnn3-c2ccccc2C#N)nc1 [Example 97a] . Reported pEC50?
Result: 6.34

Request: Please look up its pEC50: Cc1ccc(NC(=O)[C@H](COCCO)Oc2ncnc3c2nnn3-c2ccccc2Cl)nc1
Result: 5.70

###

# measurement target: recombinant human pancreatic GLK (Homo sapiens, UniProt P35557)
# Sequence (P35557 1-465): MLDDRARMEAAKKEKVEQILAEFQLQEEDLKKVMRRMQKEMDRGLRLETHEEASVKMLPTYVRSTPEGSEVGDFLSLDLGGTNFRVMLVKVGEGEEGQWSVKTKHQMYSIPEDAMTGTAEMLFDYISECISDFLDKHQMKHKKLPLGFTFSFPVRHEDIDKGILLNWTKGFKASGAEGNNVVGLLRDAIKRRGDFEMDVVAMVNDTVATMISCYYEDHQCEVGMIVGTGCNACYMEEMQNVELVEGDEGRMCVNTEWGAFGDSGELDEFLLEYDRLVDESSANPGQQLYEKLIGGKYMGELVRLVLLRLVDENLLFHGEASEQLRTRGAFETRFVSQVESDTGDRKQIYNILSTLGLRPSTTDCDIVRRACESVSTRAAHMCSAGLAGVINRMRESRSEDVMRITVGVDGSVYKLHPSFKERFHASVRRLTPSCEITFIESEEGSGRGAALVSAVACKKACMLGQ
# protocol details: biochemical
metric: log10(EC50) (log10 of the value in µM)
The common logarithm of EC50 in µM is what is listed.

Recorded log10(EC50), per entry:
| compound | log10(EC50) |
| --- | --- |
| N#Cc1ccc(NC(=O)[C@H](CCO)Oc2ncnc3c2cnn3-c2ncccc2Cl)nc1 [Example 143e] | -0.28 |
| O=C(Nc1ccncn1)[C@H](CCO)Oc1ncnc2c1cnn2-c1ncccc1Cl [Example 143f] | -0.01 |

Request: Entry under review: Cc1ccc(NC(=O)[C@H](COC(C)C)Oc2ncnc3c2cnn3-c2ncccc2C)nc1 [Example 125] . Reported log10(EC50)?
Result: -0.51

Request: Value lookup for log10(EC50); key = COCC[C@@H](Oc1ncnc2c1cnn2-c1ccccc1C)C(=O)Nc1ccc(C)cn1 [Example 18]
Result: 1.51

Request: # get_value(readout='log10(EC50)', item= CCC(Oc1ncnc2c1cnn2-c1ccccc1OC)C(=O)Nc1ccc(C)cn1 (centres unmarked) [Example 42] )
Result: -0.39

Request: What value of log10(EC50) has been reported for the following compound? COC[C@H](Oc1ncnc2c1cnn2-c1ccccc1)C(=O)Nc1ccc(C)cn1 [Example 107]
Result: 0.56

Request: Record request: log10(EC50) value, item COc1ccccc1-n1ncc2c(OC(C)C(=O)Nc3ccc(C)cn3)ncnc21 (centres unmarked) [Example 44]
Result: 0.53

Request: # query: log10(EC50) of entry Cc1ccc(NC(=O)[C@H](COC(C)C)Oc2ncnc3c2cnn3-c2nccn2C)nc1 [Example 211]
Result: 0.04

Request: Record request: log10(EC50) value, item CCOC[C@H](Oc1ncnc2c1cnn2-c1ncccc1Cl)C(=O)Nc1ccncn1 [Example 127f]
Result: 0.04

Request: Consider the compound C[C@H](CO)OC[C@H](Oc1ncnc2c1cnn2-c1ncccc1Cl)C(=O)Nc1ccc(Cl)cn1 [Example 190] and give its measured log10(EC50).
Result: -0.43

Request: // returns reported log10(EC50) for input COc1ccccc1-n1ncc2c(O[C@@H](CCS(C)(=O)=O)C(=O)Nc3ccc(C)cn3)ncnc21 [Example 12]
Result: 0.38

Request: Sample C[C@H](CO)OC[C@H](Oc1ncnc2c1cnn2-c1c(Cl)cccc1C#N)C(=O)Nc1ccccn1 [Example 231] — what was its log10(EC50)?
Result: -0.59

Request: Which value of log10(EC50) has been reported for COCC[C@H](Oc1ncnc2c1cnn2-c1ccccc1OC)C(=O)Nc1nc(C)cs1 [Example 37] in the records?
Result: 0.11

Request: Any idea what log10(EC50) was measured for CC(C)OCC(Oc1ncnc2c1cnn2-c1ccccc1Cl)C(=O)Nc1cnccn1 (centres unmarked) [Example 108] ?
Result: 0.11

Request: Returns the measured log10(EC50) for the input compound. Input: CCOC[C@H](Oc1ncnc2c1cnn2-c1ncccc1Cl)C(=O)Nc1ccc(C#N)cn1 [Example 127c]
Result: -0.17

Request: Any idea what log10(EC50) was measured for COC[C@@H](Oc1ncnc2c1cnn2-c1ccccc1Cl)C(=O)Nc1ccc(C)cn1 [Example 88] ?
Result: 0.71

###

# measurement target: recombinant human pancreatic GLK (Homo sapiens)
# Sequence (P35557 1-465): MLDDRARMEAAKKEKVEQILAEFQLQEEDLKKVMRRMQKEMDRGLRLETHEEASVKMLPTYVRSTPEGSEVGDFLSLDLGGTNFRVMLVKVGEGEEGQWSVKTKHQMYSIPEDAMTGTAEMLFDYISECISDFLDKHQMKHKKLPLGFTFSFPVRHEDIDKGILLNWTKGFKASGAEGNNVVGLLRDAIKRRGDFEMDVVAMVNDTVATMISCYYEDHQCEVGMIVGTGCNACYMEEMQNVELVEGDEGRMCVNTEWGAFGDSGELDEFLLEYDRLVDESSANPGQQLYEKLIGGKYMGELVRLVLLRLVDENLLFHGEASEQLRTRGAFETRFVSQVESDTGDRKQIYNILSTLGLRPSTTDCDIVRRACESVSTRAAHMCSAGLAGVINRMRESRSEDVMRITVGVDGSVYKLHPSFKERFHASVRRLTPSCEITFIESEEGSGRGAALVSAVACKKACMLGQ
# protocol details: biochemical
Listed below: pEC50 values for each entry.
The quantity pEC50 is defined as the negative base-10 logarithm of the molar concentration.

| compound | pEC50 |
| --- | --- |
| C[C@H](CO)OC[C@H](Oc1ncnc2c1cnn2-c1ccccc1Cl)C(=O)Nc1ccccn1 | 6.36 |
| C[C@@H](CO)OC[C@H](Oc1ncnc2c1cnn2-c1ncccc1Cl)C(=O)Nc1ccc(Cl)cn1 | 5.48 |
| CC(C)OC[C@H](Oc1ncnc2c1cnn2-c1ncccc1Cl)C(=O)Nc1ccc(Cl)cn1 [Example 127i] | 6.44 |
| Cc1nnc(NC(=O)C(COC(C)C)Oc2ncnc3c2cnn3-c2ccccc2Cl)s1 (stereo not shown) | 5.49 |
| Cc1ccc(NC(=O)[C@H](COCCO)Oc2ncnc3c2cnn3-c2cc(C#N)ccc2C)nc1 | 5.82 |

Request: Item: CC(C)OC[C@H](Oc1ncnc2c1cnn2-c1ncccc1Cl)C(=O)Nc1ccccn1 [Example 127k] Test system: recombinant human pancreatic GLK (Homo sapiens) Read-out: pEC50 Value: ?
Result: 6.25

Request: Param readout= pEC50; system= recombinant human pancreatic GLK (Homo sapiens); entry= CC(C)OCC(Oc1ncnc2c1cnn2-c1ccccc1Cl)C(=O)Nc1ncns1 (stereo not shown) ; returns value.
Result: 5.68

Request: Report pEC50 for O=C(Nc1ccccn1)[C@H](CN1CC(O)C1)Oc1ncnc2c1cnn2-c1c(F)cccc1Cl tested on recombinant human pancreatic GLK (Homo sapiens).
Result: 6.85

Request: Find the measured pEC50: item Cc1c(F)cccc1-n1ncc2c(O[C@@H](COCCO)C(=O)Nc3ccc(C#N)cn3)ncnc21 , target or system recombinant human pancreatic GLK (Homo sapiens).
Result: 5.41

Request: Can you look up pEC50 on recombinant human pancreatic GLK (Homo sapiens) for Cc1ccc(NC(=O)[C@H](CO[C@H](C)CO)Oc2ncnc3c2cnn3-c2cscc2C)nc1 ?
Result: 6.49

Request: Give recorded pEC50 with recombinant human pancreatic GLK (Homo sapiens) for the following compound: COCCOCCC(Sc1ncnc2c1cnn2C(C)C)C(=O)Nc1ccc(C)cn1 (stereo not shown)
Result: 5.71

Request: So what pEC50 did CC(C)OCC(Oc1ncnc2c1cnn2-c1ccccc1Cl)C(=O)Nc1nncs1 (stereo not shown) get with recombinant human pancreatic GLK (Homo sapiens)?
Result: 5.17

Request: Reported pEC50 for recombinant human pancreatic GLK (Homo sapiens), given CC(C)OCC(Oc1ncnc2c1cnn2-c1ccccc1Cl)C(=O)Nc1ccc(Cl)cn1 (stereo not shown) ?
Result: 6.96

Request: GET /values?readout=pEC50&system=recombinant human pancreatic GLK (Homo sapiens)&item= Cc1ccc(NC(=O)[C@H](COC[C@H](C)O)Oc2ncnc3c2cnn3-c2ncccc2Cl)nc1
Result: 5.89

Request: Value wanted: pEC50 (recombinant human pancreatic GLK (Homo sapiens)) of entry COC[C@@H](C)OC[C@H](Oc1ncnc2c1cnn2-c1ccccc1Cl)C(=O)Nc1ccc(C)cn1
Result: 6.55
